molecules and their reported composite z-score
Molecular target: Focal adhesion kinase 1 (Homo sapiens) (UniProt Q05397)
Sequence (Q05397 whole entry, looked up): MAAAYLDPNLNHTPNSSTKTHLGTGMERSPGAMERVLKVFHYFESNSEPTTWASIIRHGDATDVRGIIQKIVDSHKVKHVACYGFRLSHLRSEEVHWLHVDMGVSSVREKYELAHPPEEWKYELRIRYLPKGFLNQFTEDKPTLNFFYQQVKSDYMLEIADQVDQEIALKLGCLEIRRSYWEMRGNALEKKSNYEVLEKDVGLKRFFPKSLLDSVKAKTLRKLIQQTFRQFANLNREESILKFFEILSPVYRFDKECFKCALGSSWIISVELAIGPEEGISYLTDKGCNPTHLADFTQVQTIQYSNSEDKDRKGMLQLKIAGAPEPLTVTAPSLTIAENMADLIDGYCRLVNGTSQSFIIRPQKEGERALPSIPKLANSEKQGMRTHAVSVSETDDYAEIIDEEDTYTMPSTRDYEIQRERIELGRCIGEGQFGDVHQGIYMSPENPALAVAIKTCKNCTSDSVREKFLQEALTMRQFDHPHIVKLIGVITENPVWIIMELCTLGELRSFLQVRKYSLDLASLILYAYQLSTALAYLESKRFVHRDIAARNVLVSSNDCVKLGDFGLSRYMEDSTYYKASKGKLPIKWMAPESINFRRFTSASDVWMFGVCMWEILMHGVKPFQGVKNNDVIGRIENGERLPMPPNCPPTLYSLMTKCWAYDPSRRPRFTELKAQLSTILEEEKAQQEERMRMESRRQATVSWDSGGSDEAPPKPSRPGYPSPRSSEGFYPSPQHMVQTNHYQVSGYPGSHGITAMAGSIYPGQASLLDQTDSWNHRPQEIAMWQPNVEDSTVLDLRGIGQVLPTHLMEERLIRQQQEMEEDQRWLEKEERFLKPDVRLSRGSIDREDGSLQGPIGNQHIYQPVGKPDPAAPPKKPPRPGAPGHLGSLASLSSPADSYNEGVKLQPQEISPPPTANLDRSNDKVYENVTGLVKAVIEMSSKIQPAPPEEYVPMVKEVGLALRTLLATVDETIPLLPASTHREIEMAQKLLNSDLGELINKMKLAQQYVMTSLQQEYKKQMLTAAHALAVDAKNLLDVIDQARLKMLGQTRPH
Experiment: PTK2 protein binding on printed compound slides – biochemical, small-molecule microarray, 635/667 nm fluorescence, BSA, DTT, primary screen (AID 1130);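 note: composite of spot emission at 667 nm and signal to noise over triplicate slides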
Details: 635 nm fluorescence, higher = more signal
Just the number, please.

# count of solved cases: 2
1) COc1ccc(C(=O)Nc2cccc(CN3C(=O)[C@@]4(O[C@@H](CCn5cc([C@H](O)c6ccccc6)nn5)[C@H]([Si](C)(C)c5ccc(OC)cc5)[C@H]4C)c4ccccc43)c2)cc1
0.638
2) C=CC[C@@]1(C(=O)NCc2ccccc2)N=C(c2ccc(OCCCO)cc2)O[C@@H]1c1ccccc1CN=[N+]=[N-]
1.06

Any idea what composite z-score was measured for [N-]=[N+]=NCc1ccccc1[C@H]1OC(c2ccc(OCCCO)cc2)=N[C@@]1(Cc1ccccc1)C(=O)NCC(O)CO (stereo partly specified) ?
1.08

Any idea what composite z-score was measured for C=CCNC(=O)[C@@H]1[C@H]2C(=O)O[C@H](c3ccccc3)[C@H](c3ccccc3)N2[C@H](c2ccccc2OCCO)[C@@]12C(=O)N(C(=O)OCCOC)c1ccc(C#CCC(C(=O)OC)C(=O)OC)cc12 ?
1.25

Any idea what composite z-score was measured for C=CCNC(=O)[C@H]1[C@@H]2C(=O)O[C@@H](c3ccccc3)[C@@H](c3ccccc3)N2[C@@H](c2ccc(OCCO)cc2)[C@]12C(=O)N(C(=O)OCCOC)c1ccc(C#CC3(O)CCCCCC3)cc12 ?
1.32

Any idea what composite z-score was measured for O=C1c2ccccc2[C@](Cc2ccccc2I)(C(=O)O)[C@H](c2ccc(CO)cc2)N1Cc1ccccc1C(F)(F)F ?
0.425

* * *

compounds and their reported composite z-score
Target: Epidermal growth factor receptor (Homo sapiens)
Test: compounds binding epidermal growth factor receptor – biochemical, small-molecule microarray, 635 nm fluorescence, primary screen (AID 1104);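 note: score merges 667 nm emission intensity with spot signal to noise over triplicate slides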
Conditions: EGFR binding, higher = more signal
Just the number, please.

1) CCCCC(=C=CC[C@H](O)c1ccccc1OCCO)C[C@H](O)c1cc(Cl)cc(Cl)c1O
-0.619
2) C=CC[C@]1(C(=O)O)N=C(c2ccc(OCCCO)cc2)O[C@H]1c1ccccc1CN=[N+]=[N-]
-0.0348
3) O=C(CS)NCCCCCCNC(=O)[C@H]1C[C@H]2C(=O)N3CCC[C@H]3C(=O)N2[C@H]1c1ccc(O)cc1
-0.154
4) C=CC[C@]1(C(=O)NCCN2CCOCC2)N=C(c2ccc(OCCCO)cc2)O[C@H]1c1ccccc1N=[N+]=[N-]
0.327
5) COC(=O)[C@@]1(Cc2ccc(OC)cc2)[C@H]2c3cc(C(=O)N(C)C)n(Cc4ccc(OC)c(OC)c4)c3C[C@H]2CN1C(=O)c1ccccc1
0.149
6) COC(=O)[C@@]1(Cc2ccc(OC)cc2)[C@H]2c3cc(C(=O)N(C)C)n(CCSCCO)c3C[C@H]2CN1C(=O)c1ccccc1
-0.263
7) O=C1OCC=C[C@H]2OC34C=CCN(CCN5CCOCC5)C(=O)[C@H]3N(CCCCCCO)C(=O)[C@@H]4[C@@H]12 (stereo partly drawn)
-0.0057

Consider the record given below.
Any idea what composite z-score was measured for NC(=O)[C@]1(Cc2ccccc2)N=C(c2ccc(OCCCO)cc2)O[C@@H]1c1ccccc1 ?
-0.722
